test: chemical genetic growth profiling, strain panel (AID 1159580);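 note: tested at 20 µM; growth read once vehicle control cultures reached saturation at 30 °C; 1 = growth at the plate median or of vehicle wells; lower values mean less growth of the strain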; conditions: S. cerevisiae deletion strains, growth OD, locus YML032C, strain rad52, active compounds read low
Screen size: about 5,500 compounds; about 2,000 (36%) were called active. About 18% were inconclusive and are not listed. The list shows a part of the results.
property label: normalized growth
Give bare numbers.

Could I get normalized growth for every one of these entries?
1. COC(=O)C(N)CS (stereo unspecified)
2. CN(C)CC[C@H](c1ccc(Cl)cc1)c1ccccn1
3. C/C=C(\C)C(=O)O[C@@H]1c2c(ccc3ccc(=O)oc23)OC(C)(C)[C@@H]1OC(C)=O
4. C/C=C(/C)C(=O)O[C@@H]1Cc2c(ccc3ccc(=O)oc23)OC1(C)C

Result:
0.962
0.966
0.99
0.969

Could I get normalized growth for every one of these entries?
1. CC[C@@]1(O)C(=O)OCc2c1cc1n(c2=O)Cc2cc3ccccc3nc2-1
2. COC1=CC(C)[C@@H]2C[C@H]3OC(=O)C[C@H]4C(C)=C(OC)C(=O)C([C@@]34C)[C@@]2(C)C1=O (stereo partly specified)

Result:
1: 0.0917; 2: 1.01
